Target: T1, CD27 expressed on the cell surface (HT1080_CD27 cells) (human, UniProt P26842 20-260); further: test concentration or dose not given here
T1 sequence (looked up): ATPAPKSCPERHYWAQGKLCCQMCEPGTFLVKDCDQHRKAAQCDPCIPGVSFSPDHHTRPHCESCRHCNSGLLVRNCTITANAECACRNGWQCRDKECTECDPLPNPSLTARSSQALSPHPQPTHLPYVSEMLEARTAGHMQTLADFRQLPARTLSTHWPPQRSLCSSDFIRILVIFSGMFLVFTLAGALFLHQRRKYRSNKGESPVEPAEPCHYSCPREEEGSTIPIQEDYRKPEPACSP
Assay: cell-based or functional assay
Response field label takes Y when IL-8, cross-linked by F(ab')2 fragment [abs. corr.] is strictly below 2 abs. corr. and N in all other cases.

Below are worked cases with known answers.
binder: P018.S.10.A.G03 (antibody, V domains shown, V regions on human Ig constant parts; also called AB27_182) VH: QSVEESGGRLVTPGTPLTLTCTVSGFTISSYHMCWVRQAPGKGLQYIGIIGSNGNTYYASWAKSRSTITRNTNENTVTLKMTSLTTEDTATYFCARSSGWGARFNLWGQGTLVTVSS VL: AQVLTQTPSSVSAAVGGTVTINCQASQSVYNDNELSWYQQKPGQPPKLLIYKASTLTSGVPLRFSGSGSGTQFTLTISDVQSDDAATYYCLGGGSTPSDSTFGGGTEVVVK
class: Y
--
binder: P018.S.07.A.F03 (antibody, V domains shown, V regions on human Ig constant parts; also called AB27_127) VH: QSLEESGGRLVTPGTPLTLTCTASGFSLSNYYITWVRQAPGEGLEWIGTISTAGNTYFASWANGRFTISRTSTTVDLKMTSPTTEDTATYFCARDGAGDSNYYRNLWGQGTLVTVSS VL: DIVLTQTPASVEAAVGGTVTIKCQASQSIDRFLAWYQQKPGQPPKLLIVDASTLESGVPSRFSGSGSGTEFTLTISDLESDNAATYYCQQGYSISDIDNVFGGGTEVVVK
class: Y

query: Strictly below 2 abs. corr. in IL-8, cross-linked by F(ab')2 fragment [abs. corr.]? P018.S.10.A.C05 (antibody, V domains shown, V regions on human Ig constant parts; also called AB27_173) VH: QSVEETGGRLVTPGTPLTLTCAASGVSLSGYYAMSWVRQAPGKGLEWIGYLDATGSTYYASWVKGRFIISRPSTTVDLQITSPTIEDTATYFCARGSYDGVGYNWGLWGQGTLVTVSS VL: DIVMTQTPASVSEPVGGTVTIKCQASESIYNGLAWYQQKPGQPPKRLIYGASTLTSGVPSRFKGSGSGTEFTLTISDLESDDAATYYCQSNYGSGSRSNYIFGGGTEVVVK
result: N

query: Hello, I'm reviewing records and need to know if IL-8, cross-linked by F(ab')2 fragment [abs. corr.] of P018.S.09.A.E05 (antibody, V domains shown, V regions on human Ig constant parts; also called AB27_155) VH: QSLEESGGRLVTPGTPLTLTCTVSGIDLSRYDMSWVRQAPGKGLEWIGFIGASGSTYYASWVKGRFTISKTSTTVDLKITSPTTEDTATYFCAREETDSRGYYYSLWGPGTPVTVSS VL: ALVMTQTPASVEAAVGGTVTINCQASQSISDLLGWYQQKPGQPPKLLIYDASDLASGVPSRFSGSGSGTEFTLTISGVQSDDAATYYCQQGYSINNVDNAFGGGTEVVVK is below 2 abs. corr.. Could you check?
result: N

query: Just wondering, is IL-8, cross-linked by F(ab')2 fragment [abs. corr.] of P018.S.09.A.D05 (antibody, V domains shown, V regions on human Ig constant parts; also called AB27_152) VH: QSLEESGGRLVTPGGSLTLTCTVSGIDLSSYAMDWVRQAPGKGLEWIGVIGAGGSTYYASWANGRFTISKTSTTVDLKISSPTTEDTATYFCARDIGGDYSSRYYFSLWGPGTLVTVSS VL: DIVMTQTPASVEAAVGGTVTIKCQASQSTSTALAWYQQKPGQRPKLLIYDSSKLASGVPSRFSGSGSGTEFTLTISGVQSDDAASYYCQQGYNINNVAFGGGTEVVVK below 2 abs. corr.?
result: N

query: Just wondering, is IL-8, cross-linked by F(ab')2 fragment [abs. corr.] of P018.S.02.A.H05 (antibody, V domains shown, V regions on human Ig constant parts; also called AB27_40) VH: QSLEESGGDLVKPGASLTLTCTASGIDFSSSSMCWVRQAPGKGLEWIACIDTGSSGRTDYASWAKGRFTLSKTSATTVTLQMTSLTAADTATYFCTRYGDYAGYGYDSFDPWGPGTLVTVSS VL: AQVLTQTPSSVSAAVGGTVTINCQASQNINNWCSWYQQKPGQPPKLLIAYASTLASGVSSRFKGSGSGTQFTLTISGVQSDDAATYYCQQTFDCTDVENVFGGGTEVVVK below 2 abs. corr.?
result: Y

query: # check: IL-8, cross-linked by F(ab')2 fragment [abs. corr.] < 2 abs. corr. for P018.S.01.A.B03 (antibody, V domains shown, V regions on human Ig constant parts; also called AB27_4) VH: QSLEESGGRLVTPGTPLTLTCTVSGFSLSSNAMSWVRQAPGEGLEWIGTIYTHGSSYYATWAKGRFTISKTSSTTVDLKMTSLTTEDTATYFCAGWAGGLSLWGPGTLVTVSS VL: DVVMTQTPASVSEPVGGTVTIKCQASEDIDNALAWYQQKPGQAPKILIYSASTLPSGVPSRFKGSGSGTQFTLTISDLESADAATYYCQSAYGGTYGDGFGGGTEVVVK
result: Y

query: IL-8, cross-linked by F(ab')2 fragment [abs. corr.] under 2 abs. corr.? Item: P018.S.08.A.A03 (antibody, V domains shown, V regions on human Ig constant parts; also called AB27_136) VH: QSLEESGGRLVTPGTPLTLTCTASGFSLSSYGMIWVRQAPGKGLEWIGMIIDVTYTYYASWAKGRFTISKTSTTVDLKMTSLTTEDTATYFCARTPGYGIYAYGNLWGQGTLVTVSS VL: AQVLTQTPSPVSAAVGGTVTISCQSSQSVYGNNWLAWYQQKPGQPPKLLIYYASTLASGVPSRFKGSGSGTQFTLTISEVQSDDAATYYCQGYYSSAAYVFGGGTEVVVK
result: Y

query: I wonder whether P018.S.09.A.D02 (antibody, V domains shown, V regions on human Ig constant parts; also called AB27_150) VH: QSLEESGGRLVTPGTPLTLTCTASGFSLSKYDMGWFRQAPGKGLEWIGMIGASDRTYYASWVKGRFTISKTSTTVDLRITSPTTEDTATYFCAREYPDARGYYYNLWGPGTPVTVSS VL: ALVMTQTPASVEAAVGGTVTINCQASQSISDLLAWYQQKPGQPPKLLIYDASDLASGVPSRFSGSGSGTEFTLTISGVQSDDAATYYCQQGYSITNVDNVFGGGTEVVVK has IL-8, cross-linked by F(ab')2 fragment [abs. corr.] below 2 abs. corr.. Can you tell?
result: Y

Provenance of the data: patent US20210253725A1
